# experiment-description: Redox Reaction Profiling qHTS: Assay Interference Panel against the NCATS CANVASS Library (AID 1347401)
# conditions: resazurin-DTT redox cycling, fluorescence, 15 min; series mostly up to 57.1 µM
Results filed as inconclusive are left out. Calls of active or inactive are those of the source. Calls follow the shape of the dose curve; as a rule, active = well fitted activation curve with a large enough effect; inconclusive = small, poorly fitted or top-dose-only effect; inactive = no such curve, though single readings can be large or run the other way.
Form entry, call: pick from active, inactive

compound: CC(=O)O[C@@H]1C=C2C(=O)OC[C@]2(O)[C@@]2(C)CCCC(C)(C)[C@H]12
category: inactive

*Q* State the result this test recorded for `CC(C)(Br)[C@@H](Cl)C[C@H](Br)[C@](C)(Cl)/C=C/Br` .
*A* active

*Q* Also CCCCCCCCCCCCCCCC(=O)OC/C=C(\C)CCCC(C)CC(C)C(C)C (stereo not drawn) ?
*A* inactive

====

# experiment-description: KB-8-5-11 Cancer Cell Toxicity qHTS against the NCATS CANVASS Library (AID 1347364); also: nearly all actives have a fitted effect of over 75% in size
# conditions: KB-8-5-11 MDR cells viability, CellTiter-Glo, 72 h; series mostly up to 46.1 µM
# Source text: Natural products and their derivatives continue to be wellsprings of nascent therapeutic potential. […] To address this issue, the Canvass library of natural products was assembled (https://tripod.nih.gov/canvass), in collaboration with academic and industry researchers, for quantitative high-throughput screening (qHTS) across a diverse set of cell-based and biochemical assays. […]
Records with an inconclusive call do not appear. Calls of active or inactive are those of the source. Calls follow the shape of the dose curve; as a rule, active = well fitted cell-killing curve with a large enough effect; inconclusive = small, poorly fitted or top-dose-only effect; inactive = flat fitted curve, though single readings scatter.

compound: C=C(C)CC[C@H](Cc1c(O)cc(O)c2c1O[C@H](c1ccc(O)cc1O)CC2=O)C(=C)C
outcome: inactive

compound: CC1C(=O)C23CCC1C[C@]21O[C@@H]2C(C)(C)C=CC(=O)[C@@]23COC1=O (stereo partly drawn)
outcome: inactive

compound: C/C1=C/[C@@H](C)[C@H](O)C/C=C/CC/C=C/C(=O)O[C@@H]1[C@H](C)C(=O)/C=C/CC1CC(=O)NC(=O)C1
outcome: inactive

====

# tested-on: Cytochrome P450 1A2 (Homo sapiens)
# experiment-description: p450-cyp1a2 (AID 410)
# conditions: recombinant CYP1A2, luciferin-ME demethylation, luminescence; series mostly up to 57 µM
Results filed as inconclusive are left out. Activity calls are given as the source filed them. Calls follow the shape of the full dose curve.
Form entry, call: pick from active, inactive

*Q* State the result this test recorded for `O[C@H](CCCN1CCN(c2ncc(F)cn2)CC1)c1ccc(F)cc1` .
*A* active

====

# experiment-description: qHTS for Hypoxia signaling pathway (HIF-1) antagonists against the NCATS CANVASS Library (AID 1347374);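 also: HRE-bla ME-180 cells stimulated with cobalt chloride to stabilize HIF-1alpha; nearly all actives have a fitted effect of over 60% in size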
# conditions: HRE-bla ME-180 cells, HIF-1 beta-lactamase reporter, CoCl2; series mostly up to 38.3 µM
Inconclusive results are not listed. Active and inactive are the calls of the source. Calls come from the whole dose curve; as a rule, active = well fitted inhibition curve with a large enough effect; inconclusive = small, poorly fitted or top-dose-only effect; inactive = no such curve, though single readings can be large or run the other way. Numbered stars: 1 amine (or outer) side, 2 acyl side, 3 side chain; on linkers, the order of the positions; unused ones are H or OH. Square brackets hold non-standard residues; d marks the D form. Peptide text beside a SMILES is read from it. ξ: configuration not given here. X4 = O=C(C1CC2(c3ccc(O)cc3)c3ccccc3NC2N1[*:1])[*:2]; ξW = NC(Cc1c[nH]c2ccccc12)C(=O)O; ξY = NC(Cc1ccc(O)cc1)C(=O)O
Form entry, call: pick from active, inactive

*Q* State the result this test recorded for CC[C@H](C)[C@H](NC(=O)C(Cc1ccc(O)cc1)NC(=O)C(Cc1c[nH]c2ccccc12)NC(=O)[C@H](C)N)C(=O)N1C(C(=O)NC(Cc2ccc(O)cc2)C(=O)O)CC2(c3ccc(O)cc3)c3ccccc3NC12 (stereo not given in full) (H-A[ξW][ξY]I[X4][ξY]-OH) .
*A* inactive

// provenance: PubChem BioAssay (NCATS)
